- Target system: human V2 receptor (Homo sapiens)
- Sequence (P30518 whole entry): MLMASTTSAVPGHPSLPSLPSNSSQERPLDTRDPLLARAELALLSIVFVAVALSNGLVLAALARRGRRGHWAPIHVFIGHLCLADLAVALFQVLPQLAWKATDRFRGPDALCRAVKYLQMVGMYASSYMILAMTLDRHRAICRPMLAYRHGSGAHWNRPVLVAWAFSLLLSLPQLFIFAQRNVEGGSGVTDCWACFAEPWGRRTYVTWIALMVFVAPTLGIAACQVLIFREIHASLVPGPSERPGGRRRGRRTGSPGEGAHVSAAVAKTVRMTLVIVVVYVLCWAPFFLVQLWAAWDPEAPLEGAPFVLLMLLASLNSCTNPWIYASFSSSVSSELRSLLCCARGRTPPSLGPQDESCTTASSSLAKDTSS
- Assay name: V2 binding assay (3H-AVP displacement, HEK-293 membranes)
- Parameters: expressed in transfected cells; host or cells: HEK-293 (membranes)
- Applied conditions: 1.0 μM compound; read-out: V2@1.0, % Inh
Observable: inhibition at 1 µM (%)

{"Molecule": "O=c1n(CCCO)c2ccccc2n1C1CCN(C(=S)NC(c2ccccc2)c2ccccc2)CC1", "Target system": "human V2 receptor (Homo sapiens)", "inhibition at 1 µM / %": 16}
{"Molecule": "O=c1n(CCCN2CCCCC2)c2ccccc2n1C1CCN(C(=S)NCc2ccccc2)CC1", "Target system": "human V2 receptor (Homo sapiens)", "inhibition at 1 µM / %": 0}
{"Molecule": "COC(=O)[C@@H](Cc1ccccc1)NC(=S)N1CCC(n2c(=O)[nH]c3ccccc32)CC1", "Target system": "human V2 receptor (Homo sapiens)", "inhibition at 1 µM / %": 1}
{"Molecule": "COC(=O)[C@@H](Cc1c[nH]c2ccccc12)NC(=S)N1CCC(n2c(=O)[nH]c3ccccc32)CC1", "Target system": "human V2 receptor (Homo sapiens)", "inhibition at 1 µM / %": 0}
{"Molecule": "O=C(NC(c1ccccc1)(c1ccccc1)c1ccccc1)N1CCC(n2c(=O)n(CCCN3CCCCC3)c3ccccc32)CC1", "Target system": "human V2 receptor (Homo sapiens)", "inhibition at 1 µM / %": 20}

[I] Cc1ccccc1NC(=S)N1CCC(n2c(=O)n(CCCN3CCCCC3)c3ccccc32)CC1
[II] CC1CC(C)CN(CCCn2c(=O)n(C3CCN(C(=S)NC(c4ccccc4)c4ccccc4)CC3)c3ccccc32)C1 (stereo not shown)
Among I and II , which shows a numerically higher inhibition at 1 µM result? Please indicate the selected item by its label.
II
(II: 11%, I: 0%)

---

Structures can show the parent of a compound that is named as a salt.
Each record here notes measured melting point.

Worked examples, 3 molecules total:
{"Molecule": "NCCCn1c(=O)n(C2CCN(C(=S)NC(c3ccccc3)c3ccccc3)CC2)c2ccccc21 (as salt: hydrochloride) [Compound 55, Monohydrochloride]", "Assay result": "189 to 190 °C"}
{"Molecule": "O=c1[nH]c2ccccc2n1C1CCN(C(=S)Nc2ccccc2)CC1", "Assay result": "250 to 252 °C"}
{"Molecule": "O=c1[nH]c2ccccc2n1C1CCN(C(=S)NCc2ccccc2Cl)CC1", "Assay result": "181 to 184 °C"}

// lookup melting point for `O=c1[nH]c2ccccc2n1C1CCN(C(=S)NCCc2ccc(Cl)cc2)CC1`
234 to 236 °C

Lookup `COc1ccc(NC(=S)N2CCC(n3c(=O)[nH]c4ccccc43)CC2)cc1`
238 to 243 °C

For `O=c1[nH]c2ccccc2n1C1CCN(C(=S)NCC(c2ccccc2)c2ccccc2)CC1` then?
230 to 233 °C

---

- Target system: UniProt P47901
- Sequence (P47901 whole entry): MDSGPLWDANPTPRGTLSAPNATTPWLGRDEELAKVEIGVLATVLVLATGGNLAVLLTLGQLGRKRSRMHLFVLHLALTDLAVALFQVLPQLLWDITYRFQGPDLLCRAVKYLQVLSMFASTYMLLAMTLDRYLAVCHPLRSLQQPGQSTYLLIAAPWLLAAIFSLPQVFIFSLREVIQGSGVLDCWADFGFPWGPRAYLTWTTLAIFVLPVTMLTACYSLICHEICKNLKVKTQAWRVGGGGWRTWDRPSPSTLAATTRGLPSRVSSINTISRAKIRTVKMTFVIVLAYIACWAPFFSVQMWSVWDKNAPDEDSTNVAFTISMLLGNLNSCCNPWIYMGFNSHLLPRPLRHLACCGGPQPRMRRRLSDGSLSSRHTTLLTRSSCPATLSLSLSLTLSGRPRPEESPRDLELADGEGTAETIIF
- Assay name: V1b binding assay (3H-AVP displacement, HEK-293 membranes)
- Set-up: expressed in transfected cells; host or cells: HEK-293 (membranes)
- Applied conditions: 1.0 μM compound; read-out: V1b@1.0, % Inh
Observable: inhibition at 1 µM (%)

{"Compound structure": "O=c1n(CCCN2CCCCC2)c2cc(C(F)(F)F)ccc2n1C1CCN(C(=S)NC(c2ccccc2)c2ccccc2)CC1", "Assay result": 39}
{"Compound structure": "O=c1n(CCCN2CCCCC2)c2ccccc2n1C1CCN(C(=S)Nc2ccc3c(c2)CCC3)CC1", "Assay result": 10}

[I] COc1cccc(CNC(=S)N2CCC(n3c(=O)n(CCCN4CCCC4)c4ccccc43)CC2)c1OC
[II] O=c1n(CCCN2CCCCC2)c2ccccc2n1C1CCN(C(=S)NCC(c2ccccc2)c2ccccc2)CC1
[III] CSC(=O)NC(=N)N1CCC(n2c(=O)n(CCCN3CCCCC3)c3ccccc32)CC1
Please order the records by their reported inhibition at 1 µM, lowest number first. Lab note: final answer is the ordered label list.
III, I, II
(III: 16%, I: 31%, II: 55%)

[1] O=c1n(CCCN2CCCCCC2)c2ccccc2n1C1CCN(C(=S)NC(c2ccccc2)c2ccccc2)CC1
[2] O=c1n(CCCN2CCCCC2)c2ccccc2n1C1CCN(C(=S)NC(c2ccccc2)(c2ccccc2)c2ccccc2)CC1
Between the entries labeled 1 and 2 , whose measured inhibition at 1 µM is lower? Give the label of your selection.
2
(2: 0%, 1: 29%)

---

- Target system: human V1a receptor (Homo sapiens)
- Sequence (P37288 whole entry): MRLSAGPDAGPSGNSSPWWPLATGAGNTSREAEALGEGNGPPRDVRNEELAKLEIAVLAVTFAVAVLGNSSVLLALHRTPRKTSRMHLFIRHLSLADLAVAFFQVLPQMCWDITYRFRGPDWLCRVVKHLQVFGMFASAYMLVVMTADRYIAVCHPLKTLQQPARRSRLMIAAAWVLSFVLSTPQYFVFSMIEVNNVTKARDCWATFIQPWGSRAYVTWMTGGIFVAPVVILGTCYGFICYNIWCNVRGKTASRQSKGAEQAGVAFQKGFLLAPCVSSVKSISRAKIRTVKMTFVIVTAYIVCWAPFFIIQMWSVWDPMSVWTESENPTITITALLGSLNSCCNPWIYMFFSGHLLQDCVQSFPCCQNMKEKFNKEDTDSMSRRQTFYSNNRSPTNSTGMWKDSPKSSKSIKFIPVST
- Assay name: V1a binding assay (3H-AVP displacement, HEK-293 membranes)
- Parameters: expressed in transfected cells; host or cells: HEK-293 (membranes)
- Description: V1a, V1b or V2 Binding Assay Receptor binding studies were performed using recombinant human V1a, V1b or V2 receptors. Cellular membranes were harvested from HEK-293 cells transfected to express either the V1a, V1b or V2 receptors. Compounds were evaluated for their ability to displace ^3H-arginine vasopressin (^3H-AVP; specific activity 40-87 Ci/mmol; NEN Life Sciences, Boston, Mass.). […] Non-specific binding was determined using 1.25 μM arginine vasopressin (AVP; Peninsula Labs, Belmont, Calif.). […]
Observable: IC50 (nM)

{"Compound": "CCCC1CCN(CCCn2c(=O)n(C3CCN(C(=S)NC(c4ccccc4)c4ccccc4)CC3)c3ccccc32)CC1 [Compound 122]", "Target system": "human V1a receptor (Homo sapiens)", "IC50 [nM]": 52}
{"Compound": "CC(CN1CCCC1)Cn1c(=O)n(C2CCN(C(=O)NC(c3ccccc3)c3ccccc3)CC2)c2ccccc21 (stereo not shown) [Compound 149]", "Target system": "human V1a receptor (Homo sapiens)", "IC50 [nM]": 42}
{"Compound": "CCN(CCCn1c(=O)n(C2CCN(C(=S)NC(c3ccccc3)c3ccccc3)CC2)c2ccccc21)C1CCCCC1 [Compound 179]", "Target system": "human V1a receptor (Homo sapiens)", "IC50 [nM]": 145}
{"Compound": "COC(=O)C(Cc1ccccc1)NC(=S)N1CCC(n2c(=O)n(CCCN3CCCC3)c3ccccc32)CC1 (stereo not shown) [Compound 86]", "Target system": "human V1a receptor (Homo sapiens)", "IC50 [nM]": 13}
{"Compound": "COc1ccc(C(NC(=S)N2CCC(n3c(=O)n(CCCN4CCCCC4)c4ccccc43)CC2)c2ccc(OC)cc2)cc1 [Compound 136]", "Target system": "human V1a receptor (Homo sapiens)", "IC50 [nM]": 79}

[a] CN1CCN=C1NCCCn1c(=O)n(C2CCN(C(=S)NC(c3ccccc3)c3ccccc3)CC2)c2ccccc21 [Compound 144]
[b] O=c1n(CCCN2CCOCC2)c2ccccc2n1C1CCN(C(=S)NC(c2ccccc2)c2ccccc2)CC1 [Compound 84]
Given the two records a and b , choose the one whose IC50 value is lower. // output: label of the selected item
b
(b: 22 nM, a: 395 nM)

---

- Target system: NPY2 receptors (Homo sapiens)
- Construct: Cell Membranes from KAN-TS cells having NPY2 receptors; endogenous in cells; host or cells: KAN-TS cells (membranes)
- Sequence (P49146 whole entry): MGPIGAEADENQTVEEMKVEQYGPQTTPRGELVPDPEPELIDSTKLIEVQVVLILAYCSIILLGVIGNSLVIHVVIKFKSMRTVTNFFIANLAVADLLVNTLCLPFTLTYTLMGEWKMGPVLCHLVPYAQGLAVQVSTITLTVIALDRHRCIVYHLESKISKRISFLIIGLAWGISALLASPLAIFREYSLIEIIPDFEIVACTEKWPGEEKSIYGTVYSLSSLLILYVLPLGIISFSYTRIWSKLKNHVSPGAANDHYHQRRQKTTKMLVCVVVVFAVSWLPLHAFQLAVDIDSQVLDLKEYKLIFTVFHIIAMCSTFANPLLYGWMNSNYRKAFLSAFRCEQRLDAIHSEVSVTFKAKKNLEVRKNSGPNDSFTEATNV
- Assay name: Neuropeptide Y receptor binding assay (125I-PYY, KAN-TS cell membranes)
- Applied conditions: 10 μM compound; read-out: NPY-2@10, % Inh
Observable: inhibition at 10 µM (%)

Study these solved cases before continuing.
{"Compound": "COC(=O)[C@@H](Cc1c[nH]c2ccccc12)NC(=S)N1CCC(n2c(=O)[nH]c3ccccc32)CC1", "Assay result": 16}
{"Compound": "O=c1[nH]c2ccccc2n1C1CCN(C(=S)NCc2ccccc2Cl)CC1", "Assay result": 21}
{"Compound": "O=C(Nc1ccccc1F)N1CCC(n2c(=O)n(CCCN3CCCCC3)c3ccccc32)CC1", "Assay result": 17}
{"Compound": "CCN(CC)CCn1c(=O)n(C2CCN(C(=S)NC(C)c3ccc(F)cc3)CC2)c2ccccc21 (centres unmarked)", "Assay result": 16}

[P] O=c1n(CCCN2CCCCC2)c2ccccc2n1C1CCN(C(=S)Nc2ccccc2F)CC1
[Q] N=C(N)NCCCn1c(=O)n(C2CCN(C(=S)NC(c3ccccc3)c3ccccc3)CC2)c2ccccc21
Problem: Given the entries P and Q , determine which has the lower reported inhibition at 10 µM. # reply format: chosen label
P
(P: 26%, Q: 90%)

[a] O=c1n(CCCN2CCCCC2)c2ccccc2n1C1CCN(C(=S)NC(c2ccccc2)c2ccccc2)CC1
[b] O=c1[nH]c2ccccc2n1C1CCN(C(=S)NC(c2ccccc2)(c2ccccc2)c2ccccc2)CC1
Select the item with the higher value of inhibition at 10 µM from the options a and b listed. Indicate your choice by writing its label.
a
(a: 89%, b: 13%)

[a] O=c1n(CCCN2CCCCC2)c2ccccc2n1C1CCN(C(=S)NCc2ccccc2)CC1
[b] O=C(NCc1ccccc1F)N1CCC(n2c(=O)n(CCCN3CCCC3)c3ccccc32)CC1
Compare a and b by numeric inhibition at 10 µM and name the larger one. Answer format: the label of the selected item.
a
(a: 12%, b: 8%)
